System: soybean (Glycine max Merr.)
assay comment: Test Example 1: foliar treatment, growth inhibition rate on 14th day
Type: in vivo
study conditions: active ingredient amount 31 g/ha, 14th day after application
Kindly state Growth inhibition rate (%) Soybean for each of the entries shown.
Lab book: enter the figure in %, no units written.

Item `Cc1ccc(Oc2ncc(C#N)cc2Cl)cc1-c1c(O)c(C)nn(C)c1=O` : provide Growth inhibition rate (%) Soybean 0

Item `CCc1ccc(Oc2ncc(C(F)(F)F)cc2Cl)cc1-c1c(O)c(C)nn(C)c1=O` : provide Growth inhibition rate (%) Soybean 15

Item `CCc1ccc(Oc2nc3ccc(Cl)cc3s2)cc1-c1c(O)c(C)nn(C)c1=O` : provide Growth inhibition rate (%) Soybean 0

Item `Cc1cc(C)c(-c2c(O)c(C)nn(C)c2=O)cc1Oc1ncc(C(F)(F)F)cc1Cl` : provide Growth inhibition rate (%) Soybean 0

Item `Cc1ccc(Sc2ncc(C(F)(F)F)cc2Cl)cc1-c1c(O)c(C)nn(C)c1=O` : provide Growth inhibition rate (%) Soybean 0

Item `COc1ccc(Oc2ncc(C(F)(F)F)cc2Cl)cc1-c1c(O)c(C)nn(C)c1=O` : provide Growth inhibition rate (%) Soybean 20

Item `Cc1ccc(Oc2nc3ccc(Cl)cc3o2)cc1-c1c(O)cnn(CC2CC2)c1=O` : provide Growth inhibition rate (%) Soybean 15

Item Cc1ccc(Oc2ncc(C(F)(F)F)cc2Cl)cc1-c1c(OC(C)OC(=O)OC(C)C)c(C)nn(C)c1=O (stereo not shown) : provide Growth inhibition rate (%) Soybean 0

Item `Cc1ccc(Oc2nc3ccc(F)cc3s2)cc1-c1c(O)c(C)nn(C)c1=O` : provide Growth inhibition rate (%) Soybean 0

Item `CC(=O)Oc1c(C)nn(C)c(=O)c1-c1cc(Oc2nc3ccc(Cl)cc3s2)ccc1C` : provide Growth inhibition rate (%) Soybean 30

Item `CC(=O)Oc1c(C)nn(C)c(=O)c1-c1cc(Oc2ncc(C(F)(F)F)cc2C(F)(F)F)ccc1C` : provide Growth inhibition rate (%) Soybean 10

Item `CC(=O)Oc1c(C)nn(C)c(=O)c1-c1cc(Oc2ncc(C(F)(F)F)cc2Cl)c(C)cc1C` : provide Growth inhibition rate (%) Soybean 30

Item `Cc1ccc(Oc2ncc(C(F)(F)F)cc2Cl)cc1-c1c(OS(C)(=O)=O)c(C)nn(C)c1=O` : provide Growth inhibition rate (%) Soybean 0
